Biological target: T1, Human ST2 (human, UniProt Q01638 19-328, limits assumed)
T1 construct: also called human ST2 protein; Interleukin 1 receptor-like 1
T1 sequence (looked up): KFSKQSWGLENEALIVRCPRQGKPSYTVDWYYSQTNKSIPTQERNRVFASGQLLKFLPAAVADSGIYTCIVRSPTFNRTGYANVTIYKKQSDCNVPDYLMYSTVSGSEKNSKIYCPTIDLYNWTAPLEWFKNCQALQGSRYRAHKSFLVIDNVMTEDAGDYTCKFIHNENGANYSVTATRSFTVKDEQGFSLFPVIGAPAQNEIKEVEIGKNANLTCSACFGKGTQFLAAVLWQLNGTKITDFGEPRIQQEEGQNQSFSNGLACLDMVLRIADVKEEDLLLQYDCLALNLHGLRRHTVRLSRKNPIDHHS
Assay: SPR (Carterra), antibody immobilized, ST2 analyte
measured.attribute: koff (s⁻¹)

binder: Human ST2 IgG1 Antibody 35 (antibody, V domains shown, IgG1; also called ST2 Antibody 35) VH: QVQLVQSGAEVKKPGASVKVSCKASAYTFTSYGISWLRQAPGQGLEWMGWINPNSGNTGYAHKFQGRVTMTRDTSTSTVYMELSSLRSEDTAVYYCARGGSGWPTWGQGTLVTVSS VL: DIQMTQSPSSLSASVGDRVTITCQASQDISNYLNWYQQKPGKAPKLLIYGASSLQSGVPSRFSGSGSGTDFTLTISSLQPEDFATYYCQQANTFPFTFGPGTKVDIKR
measured.attribute: koff
value.reported: 0.016

binder: Human ST2 IgG1 Antibody 11 (antibody, V domains shown, IgG1; also called ST2 Antibody 11) VH: QVQLVQSGAEVKKPGASVKVSCKASGGTFSSYAISWVRQAPGQGLEWMGWINPNSGGTNYAQKFQGRVTMTRDTSTSTVYMELSSLRSEDTAVYYCAMDTNYYYGMDVWGQGTTVTVSS VL: DIQMTQSPSSLSASVGDRVTITCQASEDIANNLNWYQQKPGKAPKLLIYAASSLQSGVPSRFSGSGSGTDFTLTISSLQPEDFATYYCQQGYNIPFTFGQGTKLEIKR
measured.attribute: koff
value.reported: 0.019
